molecular target: Gonadotropin-releasing hormone receptor (Rattus norvegicus); assay: In vitro antagonistic activity against LH release in rat pituitary cells for control.; assay type: functional, cell-based; details: Pituitary gland cell
Square brackets hold non-standard residues; d marks the D form. Peptide text beside a SMILES is read from it. * marks the point of attachment. ξ: configuration not given here. 2Nal = N[C@@H](Cc1ccc2ccccc2c1)C(=O)O; ξLys(iPr) = CC(C)NCCCCC(N)C(=O)O; Picolinoyl = O=C(c1ccccn1)*
reported-endpoint: Activity
API note: the answer field is a bare number with no unit suffix.

Query: What measured Activity goes with CC(=O)N[C@@H](Cc1ccc2ccccc2c1)C(=O)N[C@@H](CCCCNC(=O)c1ccccn1)C(=O)NC(CCCCNC(C)C)C(=O)N1CCC[C@H]1C(N)=O (stereo partly drawn) (Ac-[2Nal]K(Picolinoyl)[ξLys(iPr)]P-NH2) ?
Result: 3.5

Query: Quick check: Activity of `CC(=O)N[C@H](Cc1ccc2ccccc2c1)C(=O)N[C@@H](CO)C(=O)N[C@@H](Cc1ccc(O)cc1)C(=O)N[C@H](Cc1ccc2ccccc2c1)C(=O)N[C@@H](CC(C)C)C(=O)N[C@@H](CCCN=C(N)N)C(=O)N1CCC[C@H]1C(=O)NCC(N)=O` ?
Result: 3.8

Query: Fill blank: measured Activity of the compound `CC(=O)N[C@H](Cc1ccc2ccccc2c1)C(=O)N[C@H](Cc1cccnc1)C(=O)N[C@@H](CO)C(=O)N[C@@H](Cc1ccc(O)cc1)C(=O)N[C@H](Cc1ccc2ccccc2c1)C(=O)N[C@@H](CC(C)C)C(=O)N[C@@H](CCCN=C(N)N)C(=O)N1CCC[C@H]1C(=O)N[C@H](C)C(N)=O` is ____.
Result: 3.8

* * *

Exercise: state measured Activity for each of the molecules provided.
target: Gonadotropin-releasing hormone receptor (Rattus norvegicus); assay: In vitro inhibition of LH release was determined in rat pituitary cells at a dose of 0.3 ug of analogue and 1 ng of LHRH; assay type: functional, cell-based; conditions: Pituitary gland cell
Enter the number alone.

Query: Sample CC(C)C[C@H](NC(=O)C(Cc1ccc2ccccc2c1)NC(=O)[C@H](Cc1ccc(O)cc1)NC(=O)[C@H](CO)NC(=O)[C@H](Cc1cccnc1)NC(=O)[C@H](Cc1ccc(Cl)cc1)NC(=O)[C@@H]1CCC(=O)N1)C(=O)N[C@@H](CCCN=C(N)N)C(=O)N1CCC[C@H]1C(=O)N[C@H](C)C(N)=O (stereo in doubt) — what was its Activity?
Result: 170

Query: Recorded Activity of `CC(=O)N[C@H](Cc1ccc2ccccc2c1)C(=O)N[C@@H](CO)C(=O)N[C@@H](Cc1ccc(O)cc1)C(=O)N[C@H](CCCCNC(=O)c1ccccn1)C(=O)N[C@@H](CC(C)C)C(=O)N[C@@H](CCCN=C(N)N)C(=O)N1CCC[C@H]1C(=O)N[C@H](C)C(N)=O` , please.
Result: 154

Query: If you can, please state the reported Activity value of CC(=O)NC(Cc1ccc2ccccc2c1)C(=O)N[C@@H](Cc1ccc(Cl)cc1)C(=O)N[C@@H](Cc1cccnc1)C(=O)N[C@@H](CO)C(=O)N[C@@H](Cc1ccc(O)cc1)C(=O)NC(Cc1ccc2ccccc2c1)C(=O)N[C@@H](CC(C)C)C(=O)N[C@@H](CCCN=C(N)N)C(=O)N1CCC[C@H]1C(=O)N[C@H](C)C(N)=O (stereo in doubt) .
Result: 4
